# assayed system: Cytochrome P450 1A2 (Homo sapiens)
# assay remarks: Cytochrome panel assay with activity outcomes; also: % is scaled to controls: 0 for no effect and ±100 for the full control effect
# condition summary: recombinant CYP, pro-luciferin dealkylation, luminescence, p450-cyp1a2; series mostly up to 57.1 µM
The whole screen tested about 16,000 compounds, of which about 5,700 (36%) were called active. About 24% were inconclusive and are not listed. The list shows a part of the results.
Listing: activity, negative = inhibition of selected molecules
experimental readout: activity, negative = inhibition

smiles string: C/C(=N/NC1=NCCN1)c1cn(C2=NCCN2)nc1C
experimental readout: activity, negative = inhibition
endpoint result: -13.9% [at 2.29 µM] (inactive)
--
smiles string: CC(C)(CC(=O)Nc1ccccc1)C(=O)O
experimental readout: activity, negative = inhibition
endpoint result: -15.9% [at 11.4 µM] (inactive)
--
smiles string: S=c1c2[nH]cnc2ncn1CCSc1ncnc2nc[nH]c12
experimental readout: activity, negative = inhibition
endpoint result: -16.9% [at 11.4 µM] (inactive)
--
smiles string: O=c1n(-c2ccccc2)c(=O)n2n1CC[C@H]1/C(=N\OCc3ccccc3)[C@H]3O[C@@H]3[C@@H](O)[C@@H]12
experimental readout: activity, negative = inhibition
endpoint result: -12.4% [at 11.4 µM] (inactive)
--
smiles string: CCc1cc2c(nc1CC)CCN(CC/C(C)=N/OC[C@@H](C)[C@H](OCc1ccccc1)C(C)C)C2
experimental readout: activity, negative = inhibition
endpoint result: -7.21% [at 11.4 µM] (inactive)
--
smiles string: O=C1[C@H]2[C@H]3[C@H](O)[C@H](O)C/C(=N/OCc4ccccc4)[C@@H]3CC[C@@H]2C(=O)N1C[C@@H]1CCCO1
experimental readout: activity, negative = inhibition
endpoint result: 1.8% [at 11.4 µM] (inactive)
--
smiles string: C[C@@](N)(/C=C\c1ccccc1)C(=O)O
experimental readout: activity, negative = inhibition
endpoint result: -17.1% [at 11.4 µM] (inactive)
--
smiles string: CO/N=C\[C@@H](C)[C@H](OCc1ccccc1)C(C)C
experimental readout: activity, negative = inhibition
endpoint result: -4.31% [at 11.4 µM] (inactive)
--
smiles string: C#CCCCO/N=C1/C[C@@H](O)[C@@H](O)[C@@H]2[C@H]3C(=O)N(c4ccc(F)cc4F)C(=O)[C@@H]3CC[C@H]12
experimental readout: activity, negative = inhibition
endpoint result: -9.85% [at 11.4 µM] (inactive)
--
smiles string: CCCNC(=O)OC[C@@H]1O[C@H](CCON=C(C)C)C=C[C@@H]1Oc1ccc(OC)cc1
experimental readout: activity, negative = inhibition
endpoint result: -2.59% [at 11.4 µM] (inactive)
--
smiles string: C[C@@H]1CC[C@H]2C(=O)N3[C@@H](CC[C@@H](C)[C@@H]3c3ccc(Br)cc3)C(=O)N2[C@@H]1c1ccc(Br)cc1
experimental readout: activity, negative = inhibition
endpoint result: -18.2% [at 11.4 µM] (inactive)
--
smiles string: O=C1C=CC(=Nc2cccc3c(N=C4C=CC(=O)O4)cccc23)O1
experimental readout: activity, negative = inhibition
endpoint result: -14% [at 11.4 µM] (inactive)
--
smiles string: C[C@H]1CC(C)(C)C[C@@](OCCN2CCCCC2)(c2ccccc2)C1
experimental readout: activity, negative = inhibition
endpoint result: 0.209% [at 11.4 µM] (inactive)
--
smiles string: CC(=O)/C(=N\N=C(N)N)c1ccccc1
experimental readout: activity, negative = inhibition
endpoint result: -17.2% [at 2.29 µM] (inactive)
--
smiles string: C/C(CCN1CCc2nc(-c3ccccc3)c(-c3ccccc3)cc2C1)=N\OC[C@@H](C)[C@H](OCc1ccccc1)C(C)C
experimental readout: activity, negative = inhibition
endpoint result: -4.9% [at 11.4 µM] (inactive)
--
smiles string: COc1ccc(C[C@@H]2C(=O)N[C@H](C)C(=O)N(C)[C@@H]3Cc4ccc(cc4)Oc4cc(ccc4O)C[C@H](C(=O)N[C@@H](C)C(=O)N[C@H](C)C(=O)N2C)N(C)C3=O)cc1
experimental readout: activity, negative = inhibition
endpoint result: -16.4% [at 11.4 µM] (inactive)
--
smiles string: C/C(CCC(=O)OC[C@@H]1O[C@H](C#Cc2ccccc2)C=C[C@@H]1Oc1ccc(C)cc1)=N/O[C@@H](C)c1cc(-c2c(C)cc(C)cc2C)no1
experimental readout: activity, negative = inhibition
endpoint result: -4.43% [at 11.4 µM] (inactive)
--
smiles string: C#CCCCO/N=C1/C[C@@H](O)[C@@H](O)[C@@H]2[C@@H]3C(=O)N(C[C@@H]4CCCO4)C(=O)[C@H]3CC[C@@H]12
experimental readout: activity, negative = inhibition
endpoint result: 1.69% [at 11.4 µM] (inactive)
--
smiles string: COc1cc2c3cc1Oc1cc(ccc1O)C[C@@H]1c4c(cc(OC)c(O)c4Oc4ccc(cc4)C[C@H]3[N+](C)(C)CC2)CC[N+]1(C)C
experimental readout: activity, negative = inhibition
endpoint result: -5.47% [at 11.4 µM] (inactive)
--
smiles string: CC(C)CO/N=C1/C[C@@H](O)[C@@H](O)[C@@H]2[C@@H]3C(=O)N(Cc4ccc5c(c4)OCO5)C(=O)[C@H]3CC[C@@H]12
experimental readout: activity, negative = inhibition
endpoint result: -7.54% [at 11.4 µM] (inactive)
--
smiles string: Cc1ccc(N(Cc2ccccc2)Cc2ccccc2)cc1
experimental readout: activity, negative = inhibition
endpoint result: -24.2% [at 2.29 µM] (inactive)
--
smiles string: Nc1ccccc1C(=O)/C=C\c1ccc2c(c1)OCO2
experimental readout: activity, negative = inhibition
endpoint result: -4.77% [at 11.4 µM] (inactive)
--
smiles string: COc1ccc([C@@H](Nc2ncccn2)c2cc3c(cc2O)OCO3)cc1
experimental readout: activity, negative = inhibition
endpoint result: -14.3% [at 2.29 µM] (inactive)
--
smiles string: Cc1nc(CN2CCCCC2)c(O)c(=O)[nH]1
experimental readout: activity, negative = inhibition
endpoint result: -7.06% [at 11.4 µM] (inactive)
--
smiles string: COC(=O)[C@@H]1[C@@H](O)[C@]2(O)c3ccccc3O[C@]2(c2ccccc2)[C@H]1c1ccccc1
experimental readout: activity, negative = inhibition
endpoint result: -6.42% [at 11.4 µM] (inactive)
--
smiles string: O=C1[C@H]2[C@H]3[C@H](O)[C@H](O)C/C(=N/OCc4ccccc4)[C@H]3CC[C@@H]2C(=O)N1C[C@@H]1CCCO1
experimental readout: activity, negative = inhibition
endpoint result: -4.81% [at 11.4 µM] (inactive)
--
smiles string: CC(C)C(O)(C(C)C)C(C)C
experimental readout: activity, negative = inhibition
endpoint result: -8.65% [at 11.4 µM] (inactive)
--
smiles string: CO[C@H]1COC(=O)[C@@H](Cc2ccccc2)NC(=O)[C@@H](C)COC(=O)CCC[C@@H]1C
experimental readout: activity, negative = inhibition
endpoint result: -3.47% [at 11.4 µM] (inactive)
--
smiles string: CN(C)CCNc1nc2c(c(=O)n(C)c(=O)n2C)n1C
experimental readout: activity, negative = inhibition
endpoint result: -7.73% [at 11.4 µM] (inactive)
--
smiles string: CC(=O)Nc1nc(NC(C)=O)c2[nH]c(CO)nc2n1
experimental readout: activity, negative = inhibition
endpoint result: -14.4% [at 11.4 µM] (inactive)
--
smiles string: CS[C@]12C(=O)C[C@]3(C)[C@@H](CC[C@@]3(O)C(=O)CO)[C@@H]1CCC1=CC(=O)CC[C@]12C
experimental readout: activity, negative = inhibition
endpoint result: -24.3% [at 2.29 µM] (inactive)
--
smiles string: COc1ccc(O[C@H]2C=C[C@@H](c3ccccc3)O[C@H]2CO/N=C\C[C@@H]2C=C[C@H](OC(C)=O)[C@H](COC(C)=O)O2)cc1
experimental readout: activity, negative = inhibition
endpoint result: 1.58% [at 11.4 µM] (inactive)
--
smiles string: COc1ccc(O[C@H]2C=C[C@@H](c3ccccc3)O[C@H]2COC(=O)CC/C(C)=N/O[C@@H]2O[C@H](COC(C)=O)[C@H](OC(C)=O)[C@H](OC(C)=O)[C@H]2OC(C)=O)cc1
experimental readout: activity, negative = inhibition
endpoint result: 7.86% [at 11.4 µM] (inactive)
--
smiles string: N[C@@H](Cc1[nH]nc2ccccc12)C(=O)O
experimental readout: activity, negative = inhibition
endpoint result: -19.1% [at 11.4 µM] (inactive)
--
smiles string: NC(=O)C[C@H](N)C(N)=O
experimental readout: activity, negative = inhibition
endpoint result: -6.74% [at 11.4 µM] (inactive)
--
smiles string: CN(C)CCOC(=O)c1ccc(N)cc1
experimental readout: activity, negative = inhibition
endpoint result: 1.14% [at 11.4 µM] (inactive)
